Items are presented alongside their recorded pIC50.
# target-under-test: EGFR (Homo sapiens)
# Sequence (P00533 25-1210): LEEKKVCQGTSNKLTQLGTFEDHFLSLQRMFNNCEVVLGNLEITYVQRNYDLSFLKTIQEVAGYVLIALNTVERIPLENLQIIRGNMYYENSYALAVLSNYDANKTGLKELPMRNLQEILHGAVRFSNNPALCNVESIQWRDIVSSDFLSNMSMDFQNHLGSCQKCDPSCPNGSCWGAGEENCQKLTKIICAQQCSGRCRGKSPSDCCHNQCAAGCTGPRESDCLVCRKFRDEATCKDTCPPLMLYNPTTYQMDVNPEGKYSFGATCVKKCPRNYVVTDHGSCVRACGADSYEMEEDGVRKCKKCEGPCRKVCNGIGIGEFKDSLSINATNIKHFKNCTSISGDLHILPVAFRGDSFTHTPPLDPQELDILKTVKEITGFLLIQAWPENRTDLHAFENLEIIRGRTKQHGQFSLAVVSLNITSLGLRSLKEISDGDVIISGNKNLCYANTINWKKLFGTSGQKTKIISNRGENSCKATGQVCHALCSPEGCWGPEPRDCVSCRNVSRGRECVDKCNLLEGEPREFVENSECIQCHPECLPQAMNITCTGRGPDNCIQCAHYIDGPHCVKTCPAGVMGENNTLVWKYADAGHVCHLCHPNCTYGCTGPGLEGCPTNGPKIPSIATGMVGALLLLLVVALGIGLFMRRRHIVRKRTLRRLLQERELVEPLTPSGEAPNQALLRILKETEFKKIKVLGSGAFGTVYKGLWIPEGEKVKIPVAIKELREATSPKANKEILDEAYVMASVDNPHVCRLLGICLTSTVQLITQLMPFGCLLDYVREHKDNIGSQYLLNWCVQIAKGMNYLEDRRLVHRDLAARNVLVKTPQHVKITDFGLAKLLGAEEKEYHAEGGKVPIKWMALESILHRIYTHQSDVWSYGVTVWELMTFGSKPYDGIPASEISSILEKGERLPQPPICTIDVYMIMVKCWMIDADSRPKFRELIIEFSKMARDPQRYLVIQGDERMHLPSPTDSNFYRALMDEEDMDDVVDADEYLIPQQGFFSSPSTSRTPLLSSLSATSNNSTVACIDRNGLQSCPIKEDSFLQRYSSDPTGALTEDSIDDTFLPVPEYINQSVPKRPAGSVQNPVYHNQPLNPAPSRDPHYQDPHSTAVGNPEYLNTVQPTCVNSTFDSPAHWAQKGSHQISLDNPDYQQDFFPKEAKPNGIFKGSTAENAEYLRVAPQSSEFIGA
# assay-details: Inhibition of a panel of kinases, in vitro HotSpot kinase assay: EGFR
# Format: biochemical
# cond: E compounds, Table 17
pIC50: −log10 of the molar value.
assay-readout: pIC50

- compound: "CCC(O)(CC)c1ccc(C(=O)N[C@@H]2CCCN(c3cnc(C(N)=O)c(Nc4cnn(C)c4)n3)[C@@H]2C)cc1"
  observed-result: "6.00 to 7.00"
- compound: "C=CC(=O)N1CCC[C@@H](N(C)c2cnc(C(N)=O)c(Nc3cc(C)ns3)n2)C1"
  observed-result: "7.00 to 8.00"
- compound: "Cc1cc(Nc2nc(N3CC[C@H](O)[C@@H](N4CCC[C@@H](Nc5cc(Cl)cc(C(F)(F)F)c5)C4=O)C3)nnc2C(N)=O)sn1"
  observed-result: "7.00 to 8.00"
- compound: "C=CC(=O)N1CCC[C@@H](Nc2cnc(C(N)=O)c(Nc3ccc(C4CCN(C5CCCC5)CC4)cc3)n2)[C@H]1C"
  observed-result: "≥ 8.00"
- compound: "Cc1nc(-c2ccc(C(=O)N[C@@H]3CCCN(c4cnc(C(N)=O)c(Nc5cnn(C)c5)n4)[C@@H]3C)cc2)cs1"
  observed-result: "6.00 to 7.00"
- compound: "C=CC(=O)N1CCC[C@@H](Nc2nnc(C(N)=O)c(Nc3ccc(N4CCOCC4=O)cc3)n2)C1"
  observed-result: "7.00 to 8.00"
- compound: "Cc1cc(C(=O)N[C@@H]2CCCN(c3cnc(C(N)=O)c(Nc4cnn(C)c4)n3)[C@@H]2C)ccc1C(C)(C)O"
  observed-result: "5.00 to 6.00"
- compound: "C=CC(=O)N1CC[C@@H](N(C)c2cnc(C(N)=O)c(Nc3cnn(CCOC)c3)n2)C1"
  observed-result: "6.00 to 7.00"
- compound: "C=CC(=O)N1CCC[C@@H](Nc2nnc(C(N)=O)c(Nc3ccc(S(C)(=O)=O)cc3)n2)C1"
  observed-result: "≥ 8.00"
- compound: "C=CC(=O)N[C@@H]1CCCN(c2cnc(C(N)=O)c(Nc3cnn(C)c3)n2)[C@@H]1C"
  observed-result: "6.00 to 7.00"
- compound: "C=CC(=O)N1CCC[C@@H](N(C)c2cnc(C(N)=O)c(Nc3ccc(C4CCN(C5CCCC5)CC4)cc3)n2)C1"
  observed-result: "7.00 to 8.00"
- compound: "C=CC(=O)N1CC[C@@H](N(C)c2cnc(C(N)=O)c(Nc3ccc(C4CCN(C)CC4)cc3)n2)C1"
  observed-result: "≥ 8.00"
- compound: "C[C@@H]1[C@H](NC(=O)c2ccc(-c3ncco3)cc2)CCCN1c1cnc(C(N)=O)c(Nc2cnn(C)c2)n1"
  observed-result: "5.00 to 6.00"
- compound: "C=CC(=O)N1CCC[C@@H](Nc2nnc(C(N)=O)c(Nc3ccc(-c4nn[nH]n4)cc3)n2)C1"
  observed-result: "≥ 8.00"
- compound: "C=CC(=O)N1CC[C@@H](N(C)c2cnc(C(N)=O)c(Nc3ccc(C4CCN(C5CC5)CC4)cc3)n2)C1"
  observed-result: "≥ 8.00"
- compound: "C=CC(=O)N1CC[C@@H](N(C)c2cnc(C(N)=O)c(Nc3ccc(-n4nccn4)cc3)n2)C1"
  observed-result: "7.00 to 8.00"
- compound: "C=CC(=O)N[C@@H]1CCCN(c2cnc(C(N)=O)c(Nc3ccc(C4CCN(C5CC5)CC4)cc3)n2)[C@@H]1C"
  observed-result: "7.00 to 8.00"
- compound: "C=CC(=O)N1CCC[C@@H](Nc2cnc(C(N)=O)c(Nc3ccc(C4CCN(C5CCCC5)CC4)cc3)n2)C1"
  observed-result: "≥ 8.00"
- compound: "C=CC(=O)N1CCC[C@@H](Nc2nnc(C(N)=O)c(Nc3cc(C)ns3)n2)C1"
  observed-result: "≥ 8.00"
- compound: "C[C@@H]1[C@H](NC(=O)c2ccc(C3CC3)cc2)CCCN1c1cnc(C(N)=O)c(Nc2ccc(OC3CCN(C)C3)cc2)n1 (stereo partly shown)"
  observed-result: "6.00 to 7.00"
- compound: "C[C@@H]1[C@H](NC(=O)c2cc(C(C)(C)C)nn2C)CCCN1c1cnc(C(N)=O)c(Nc2cnn(C)c2)n1"
  observed-result: "5.00 to 6.00"
- compound: "C[C@@H]1CCN(c2cnc(C(N)=O)c(Nc3cnn(C)c3)n2)C[C@@H]1NC(=O)c1ccc(C2CC2)cc1"
  observed-result: "< 5.00"
- compound: "C[C@@H]1[C@H](NC(=O)c2noc(C(C)(C)C)n2)CCCN1c1cnc(C(N)=O)c(Nc2cnn(C)c2)n1"
  observed-result: "5.00 to 6.00"
- compound: "C[C@@H]1[C@H](NC(=O)c2ccc(C(C)(C)O)cc2)CCCN1c1cnc(C(N)=O)c(Nc2ccc(C3(C)CCN(C4CC4)CC3)cc2)n1"
  observed-result: "6.00 to 7.00"
- compound: "C=CC(=O)N1CCC[C@@H](Nc2cnc(C(N)=O)c(Nc3ccc(C4(C)CCN(C5CCCC5)CC4)cc3)n2)[C@H]1C"
  observed-result: "≥ 8.00"
- compound: "C[C@@H]1[C@H](NC(=O)c2ccc(C(=O)N(C)C)cc2)CCCN1c1cnc(C(N)=O)c(Nc2cnn(C)c2)n1"
  observed-result: "6.00 to 7.00"
- compound: "C[C@@H]1[C@H](NC(=O)c2ccc(C3CC3)cc2)CCCN1c1cnc(C(N)=O)c(Nc2ccc(N3CCN(C4COC4)C[C@@H]3C)cc2)n1"
  observed-result: "5.00 to 6.00"
- compound: "C[C@@H]1[C@H](NC(=O)c2cccc(C(C)(C)O)c2)CCCN1c1cnc(C(N)=O)c(Nc2cnn(C)c2)n1"
  observed-result: "6.00 to 7.00"
